# assay name: folding enthalpy; higher = less favourable; fluorescence melt of hairpins on a sequencing array, two-state fit
# experimental conditions: sodium 0.088 M
Grouping rule (folding enthalpy): low (below -30 kcal/mol), moderate (-30 kcal/mol to below -20 kcal/mol), high (-20 kcal/mol or more)

{"columns": ["ordered residues", "class name"],
 "data": [
  ["GCCGCCACGAAAGTGGGC (((..(((....))))))", "high"],
  ["GATACCGAAAGGTTCATC ((((((....)))..)))", "high"],
  ["GGTGGTCCGAAAGGAACC (((..(((....))))))", "high"],
  ["GCGGGAGCGAAAGCTCGC (((..(((....))))))", "high"],
  ["GGGCCACGAAAGTGCCCC (((.(((....))).)))", "high"],
  ["GAGGCCGGAAACGGCCCC (.(((((....))))).)", "high"],
  ["GATCGGGATCCCGATC ((((((....))))))", "low"],
  ["GCGTAGCGAAAGCCAGGC ((.(.((....)).).))", "high"],
  ["GACGCAGGAAACCACGTC ((((..(....)..))))", "high"],
  ["GGACAGCCGAAAGGCTCC (((..(((....))))))", "high"],
  ["CGTGACGGAAACGTAACG (((.(((....))).)))", "low"],
  ["GCCCCCGAAAGGGAAGGC ((((((....)))..)))", "moderate"],
  ["GGAAAAGAAATTTTCC ((((((....))))))", "moderate"],
  ["GAGTCTGCGAAAGCACTC (((..(((....))))))", "high"],
  ["GATCTGTGACCAGATC ((((((....))))))", "low"],
  ["GCGTGCCTACGC ((((....))))", "moderate"],
  ["GCGCCGCGAAAGCTACGC (((..((....))..)))", "moderate"],
  ["GATCATAGGCATGATC ((((((....))))))", "low"],
  ["CGCGGACCGTCCGCG ((((((...))))))", "moderate"],
  ["GATCTACGAATAGATC ((((((....))))))", "moderate"]
]}

Values compiled from the array DNA melting data of Ke et al. (doi:10.1101/2024.01.08.574731).
